Where these numbers come from: patent US20130150376A1

Tgt: BACE1 enzyme (soluble, truncated BACE enzyme, BACE1deltaTM96His) (Homo sapiens, UniProt P56817)
Construct: soluble, truncated BACE enzyme (BACE1deltaTM96His); His; made in house
Sequence (P56817 46-457): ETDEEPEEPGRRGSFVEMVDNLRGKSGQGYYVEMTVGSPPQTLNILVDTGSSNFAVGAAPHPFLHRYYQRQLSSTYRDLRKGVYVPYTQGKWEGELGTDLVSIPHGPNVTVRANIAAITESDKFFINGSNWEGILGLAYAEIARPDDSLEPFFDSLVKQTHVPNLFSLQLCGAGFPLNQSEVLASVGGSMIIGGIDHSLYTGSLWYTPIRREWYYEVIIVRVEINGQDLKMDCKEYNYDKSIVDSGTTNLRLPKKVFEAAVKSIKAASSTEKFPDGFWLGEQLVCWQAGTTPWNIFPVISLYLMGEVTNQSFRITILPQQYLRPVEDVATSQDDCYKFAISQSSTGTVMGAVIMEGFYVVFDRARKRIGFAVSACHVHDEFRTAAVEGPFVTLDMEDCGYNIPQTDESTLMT
Assay: BACE1 Fluorescent Polarization (FP) Assay
Type: biochemical
Test settings: 8-point curve; geometric mean of 2-4 IC50 determinations unless footnoted (^2: 5-6 determinations; ^4: single determination); read-out: BACE activity, 8-point curve, IC50
pIC50: −log10 of the molar value. Counter-ions that a name gives are not always drawn.
Assay metric: pIC50

P. C[C@H]1C[C@@]2(C=CS(=O)(=O)N2c2cccc(F)c2)CCN1Cc1ncoc1C1CCCOC1 (stereo partly shown)
Q. Cc1scnc1-c1cc(CN2CC[C@]3(CCS(=O)(=O)N3c3cnccn3)C[C@@H]2C)ccc1O
R. Cc1ccsc1-c1cc(CN2CC[C@]3(C=CS(=O)(=O)N3c3cccc(F)c3)C[C@@H]2C)ccc1O [Example 5, hydrochloride salt]
S. C[C@H]1C[C@@]2(C=CS(=O)(=O)N2c2cccc(F)c2)CCN1Cc1ncoc1-c1cccnc1 [Example 22, hydrochloride salt]
Order the entries above from lowest to highest pIC50. Please list the labels according to the requested order. S, P, Q, R
(S: 6.38, P: 6.72, Q: 7.19, R: 9.14)
